test: Molar enthalpy of transition or fusion; settings: Crystal; DSC
Threshold rule: Molar enthalpy of transition or fusion greater than or equal to 20 kcal/mol is TRUE; below that, FALSE.

{"columns": ["compound", "label_class"],
 "data": [
  ["CCCCCCCCCCCCOC(=O)CCC(=O)O [butanedioic acid, monododecyl ester]", "FALSE"],
  ["CCCCCCCCCCCCCCCCCCCCCCOC(=O)/C=C\\C(=O)O [maleic acid monodocosyl ester]", "TRUE"],
  ["CCCCCCCCCCCCCCCCOC(=O)/C=C\\C(=O)O [maleic acid monohexadecyl ester]", "FALSE"],
  ["CCCCCCCCCCCCCCCCOC(=O)CCC(=O)O [succinic acid monohexadecyl ester]", "FALSE"],
  ["CCCCCCCCOC(=O)/C=C\\C(=O)O [maleic acid monooctyl ester]", "FALSE"],
  ["CCCCCCCCOC(=O)CCC(=O)O [succinic acid monooctyl ester]", "FALSE"],
  ["CCCCCCCCCCCCCCCCCCCCCCOC(=O)CCC(=O)O [succinic acid monodocosyl ester]", "TRUE"],
  ["CCCCCCCCCCCCOC(=O)/C=C\\C(=O)O [maleic acid monododecyl ester]", "FALSE"]
]}

* * *

conditions: Crystal; DTA
± gives the expanded uncertainty stated by the source.

{"columns": ["compound", "Normal melting temperature"],
 "data": [
  ["CCCCCCCCCCCCOC(=O)CCC(=O)O [butanedioic acid, monododecyl ester]", "45.80 ± 2.1 °C"],
  ["CCCCCCCCCCCCCCCCCCCCCCOC(=O)CCC(=O)O [succinic acid monodocosyl ester]", "73.60 ± 1.1 °C"],
  ["CCCCCCCCCCCCOC(=O)/C=C\\C(=O)O [maleic acid monododecyl ester]", "51.30 ± 4 °C"],
  ["CCCCCCCCCCCCCCCCOC(=O)/C=C\\C(=O)O [maleic acid monohexadecyl ester]", "71.80 ± 3 °C"],
  ["CCCCCCCCOC(=O)CCC(=O)O [succinic acid monooctyl ester]", "36.50 ± 1.1 °C"],
  ["CCCCCCCCCCCCCCCCCCCCCCOC(=O)/C=C\\C(=O)O [maleic acid monodocosyl ester]", "82.00 ± 5 °C"],
  ["CCCCCCCCCCCCCCCCOC(=O)CCC(=O)O [succinic acid monohexadecyl ester]", "64.20 ± 1.1 °C"],
  ["CCCCCCCCOC(=O)/C=C\\C(=O)O [maleic acid monooctyl ester]", "31.10 ± 3 °C"]
]}
